TARGET_OR_SYSTEM: human recombinant DGK ξ (Homo sapiens (Human))
Sequence (Q13574 whole entry): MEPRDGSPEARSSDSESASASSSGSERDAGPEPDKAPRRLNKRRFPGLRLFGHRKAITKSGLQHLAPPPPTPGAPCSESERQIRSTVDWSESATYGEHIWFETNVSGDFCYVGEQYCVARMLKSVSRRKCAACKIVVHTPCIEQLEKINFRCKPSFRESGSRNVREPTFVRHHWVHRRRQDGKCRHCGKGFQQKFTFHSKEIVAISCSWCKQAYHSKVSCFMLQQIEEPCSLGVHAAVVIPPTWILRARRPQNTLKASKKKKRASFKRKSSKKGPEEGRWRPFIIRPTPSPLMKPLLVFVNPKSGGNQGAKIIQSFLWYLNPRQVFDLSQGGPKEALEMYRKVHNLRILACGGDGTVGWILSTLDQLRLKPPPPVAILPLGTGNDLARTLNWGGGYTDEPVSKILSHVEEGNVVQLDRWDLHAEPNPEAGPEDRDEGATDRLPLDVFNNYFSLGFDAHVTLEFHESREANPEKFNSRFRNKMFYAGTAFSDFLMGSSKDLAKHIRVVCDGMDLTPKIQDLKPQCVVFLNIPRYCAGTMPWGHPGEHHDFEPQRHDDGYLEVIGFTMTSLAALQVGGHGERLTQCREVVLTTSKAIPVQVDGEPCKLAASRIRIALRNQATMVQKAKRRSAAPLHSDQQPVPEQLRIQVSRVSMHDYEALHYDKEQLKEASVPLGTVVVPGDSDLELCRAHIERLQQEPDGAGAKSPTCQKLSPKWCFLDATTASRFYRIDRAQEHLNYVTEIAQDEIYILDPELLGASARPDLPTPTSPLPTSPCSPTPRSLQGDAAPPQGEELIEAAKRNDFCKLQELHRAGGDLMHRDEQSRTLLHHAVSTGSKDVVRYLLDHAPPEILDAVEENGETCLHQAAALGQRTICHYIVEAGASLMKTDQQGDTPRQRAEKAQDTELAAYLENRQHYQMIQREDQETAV
ASSAY_DETAILS: Evaluation of DGK ξ inhibitory effect (ADP-Glo Kinase Assay)
pIC50: −log10 of the molar value.
MEASURED_PARAMETER: pIC50

{"COMPOUND": "CNC[C@@H]1CCCN(c2c(NC(=O)c3csc(-c4ccnnc4)n3)ccc(Oc3ccccc3Cl)c2C(F)(F)F)C1", "NUMERIC_READOUT": 7.89}

1 = CNC[C@H]1CCCN1c1c(NC(=O)c2csc(-c3ccnnc3)n2)ccc(Oc2ccccc2F)c1C(F)(F)F
2 = NC[C@@H]1CCCN(c2c(NC(=O)c3csc(-c4ccnnc4)n3)cc(F)c(Oc3ccccc3)c2F)C1
3 = Cc1c(Oc2ccccc2)ccc(NC(=O)c2csc(-c3ccnnc3)n2)c1N1CCC[C@@H](CN)C1
4 = CN(C)[C@H]1CCN2CCN(c3c(NC(=O)c4csc(-c5ccnnc5)n4)ccc(Oc4ccccc4)c3C(F)(F)F)C[C@H]12
5 = NC[C@@H]1CCCN(c2c(NC(=O)c3csc(-c4ccnnc4)n3)ccc(Oc3ccccc3F)c2C(F)(F)F)C1 [Example 33]
[in] Hey, quick one: sort these by pIC50, largest value first please. # output: labels, in the requested order
[out] 5, 2, 3, 1, 4
